# System: MS2 coat protein
# assay-explanation: apparent Kd, MS2 coat protein; higher = weaker binding; RNA-MaP array
# condition-details: ligand present: flavin mononucleotide; designed as: ON switch for flavin mononucleotide
Catalogue of sequences with associated apparent Kd
Give the quantity in nM, number only.

Sample answers from the record:
CAAAGGAACCAGAAGGCCAUAGGUAAAAUAGUUGGAGGAUAUGGGCACAUGAGGAUCACCCAUGUUCACUGUAAUCAGGAAUAG 35.3
AUCUGGUUACAAGGAUAUCCAAUGUAAACAAUAGGAGAAGGAGUGAAAAGACCUAGGAAAACAUGAGGAUCACCCAUGUAAUUA 39.1
GUACAUUUUGCAGGAUAUGUUCAAUACAUGAGGAUCACCCAUGUUCCCUGCUCGGGUCGAGCAUAACAGAAGGGCACUAUAUGU 12.1

Ask | Returns the measured apparent Kd for the input sequence. Input: "CGUAAUGCACUAGGAUAUGUUGUAUAUACAACGACAGAAGGAGUUCCACAUGAGGAUCACCCAUGUCCAAACCAAUACUCAUCG"
Reply | 64

Ask | Can you look up the measured apparent Kd of "GGCGAUCAGUGAGGAUAUUCCGCGCAAAUACUAGAAGAAGGCACGUAUCAAGGGUUCAGAACAUGAGGAUCACCCAUGUCAAGC" for me?
Reply | 10.1

Ask | Item "UAAGACGGGCGAGGAUAUACGAACUGGGUCAAAGUAGAAGGCGCGAGUCAUUGUUAUAAUCCAACAUGAGGAUCACCCAUGUCU" has what recorded apparent Kd?
Reply | 15.6

Ask | apparent Kd lookup needed for "GGGAAACAUGAGGAUCACCCAUGUGUACAUAAGUAAGGAUAUAGAAGAGGUGACAGUGGUCUAGAAGGUACAACAC" , thanks.
Reply | 46.4

Ask | Item under review: "UAUUAACAUGAGGAUCACCCAUGUUAUAGAGACCUAGGAUAUGCUUGCAUCCUCGCUCGUGCAGAAGGAGGUUUAU" . Reported apparent Kd?
Reply | 5.88
